SYSTEM UNDER TEST: NK2 receptor (Homo sapiens)
Sequence (P21452 whole entry): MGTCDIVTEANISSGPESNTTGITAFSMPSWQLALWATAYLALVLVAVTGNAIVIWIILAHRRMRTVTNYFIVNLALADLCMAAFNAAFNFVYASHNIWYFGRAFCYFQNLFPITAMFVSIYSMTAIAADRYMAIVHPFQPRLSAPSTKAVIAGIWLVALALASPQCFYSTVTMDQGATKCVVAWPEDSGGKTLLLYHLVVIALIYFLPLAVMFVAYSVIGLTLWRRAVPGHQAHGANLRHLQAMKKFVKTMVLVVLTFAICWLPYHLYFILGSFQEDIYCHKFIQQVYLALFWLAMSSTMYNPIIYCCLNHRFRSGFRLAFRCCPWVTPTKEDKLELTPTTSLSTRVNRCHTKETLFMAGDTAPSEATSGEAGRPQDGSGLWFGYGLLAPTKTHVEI
EXPERIMENTAL DETAILS: neurokinin receptor binding assay, NK2 (Ki)
TEST PARAMETERS: read-out: Ki (NK2)
Sorting guide: entries reporting Ki beneath 0.7 nM go in the yes (1) pile, the rest go in the no (0) pile.

COMPOUND	LABEL CLASS
CON=C(CN(C)C(=O)c1cc(Cl)cc(Cl)c1)[C@H](CC[N+]1([O-])CCC(N2CCCCC2=O)CC1)c1ccc(Cl)c(Cl)c1 (stereo partly drawn) [Example 13G]	yes (1)
CNC(=O)CC1CCCN(C2CCN(CCC(C(CN(C)C(=O)c3cc(Cl)cc(Cl)c3)=NOCCCS(=O)(=O)O)c3ccc(Cl)c(Cl)c3)CC2)C1=O (stereo not drawn) [Example 15H]	yes (1)
Cc1cc(C(=O)N(C)CC(=NOCC(N)=NO)C(CCN2CCC(O)(c3ccccc3)CC2)c2ccc(Cl)c(Cl)c2)cc(Cl)n1 (stereo not drawn)	no (0)
COc1cc(C(=O)N(C)CC(=NOCC(N)=NO)C(CCN2CCC(N3CCCCC3=O)CC2)c2ccc(Cl)c(Cl)c2)cc(OC)c1C (stereo not drawn) [Example 21B]	yes (1)
Cc1cc(C)cc(C(=O)N(C)CC(=NOCC(=O)N2CCSCC2)C(CCN2CCC(N3CCCCC3=O)CC2)c2ccc(Cl)c(Cl)c2)c1 (stereo not drawn) [Example 18J]	no (0)
CON=C(N)CON=C(CN(C)C(=O)c1cc(Cl)cc(Cl)c1)C(CCN1CCC(N2CCCC(CC(=O)N(C)C)C2=O)CC1)c1ccc(Cl)c(Cl)c1 (stereo not drawn) [Example 14E]	yes (1)
Cc1cc(C)cc(C(=O)N(C)CC(=NOCC(N)=NO)C(CCN2CCC(N3CCCCC3=O)CC2)c2ccc(Cl)c(Cl)c2)c1 (stereo not drawn) [Example 18E]	yes (1)
CNC(=O)CC1CCCN(C2CCN(CCC(C(CNC(=O)c3cc(Cl)cc(Cl)c3)=NOC)c3ccc(Cl)c(Cl)c3)CC2)C1=O (stereo not drawn) [Example 29B]	no (0)
CCN(CC(=NOC)C(CCN1CCC(N2CCCC(CC(=O)NC)C2=O)CC1)c1ccc(Cl)c(Cl)c1)C(=O)c1cc(Cl)cc(Cl)c1 (stereo not drawn) [Example 28B]	no (0)
CON=C(CN(C)C(=O)c1cc(C)cc(C)c1)C(CCN1CCC(N2CCCCC2=O)CC1)c1ccc(Cl)c(Cl)c1 (stereo not drawn) [Example 18B]	yes (1)
